Target: rNPFF2 (Rattus norvegicus)
Sequence (Q9EQD2 whole entry): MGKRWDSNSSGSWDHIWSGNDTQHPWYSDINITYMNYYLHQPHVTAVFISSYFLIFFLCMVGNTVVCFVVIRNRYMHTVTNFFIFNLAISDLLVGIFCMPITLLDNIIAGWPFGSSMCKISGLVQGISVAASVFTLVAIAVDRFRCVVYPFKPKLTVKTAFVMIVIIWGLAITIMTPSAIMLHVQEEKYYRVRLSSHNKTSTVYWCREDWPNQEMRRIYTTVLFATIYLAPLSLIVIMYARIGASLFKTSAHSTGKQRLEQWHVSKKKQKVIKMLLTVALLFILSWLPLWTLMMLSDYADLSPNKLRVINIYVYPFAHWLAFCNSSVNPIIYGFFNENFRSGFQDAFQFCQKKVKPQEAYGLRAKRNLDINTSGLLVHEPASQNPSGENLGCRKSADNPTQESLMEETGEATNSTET
Assay: Binding affinity at cloned recombinant rat NPFF2 receptor
Mark 1 only when Ki stays strictly below 1 µM. Values equal to the cut-off are -1.

Given CCCCCOc1ccc2nc(NC(=N)N)nc(C)c2c1 , is recorded Ki strictly lower than 1 µM?
-1

Given Cc1nc(NC(=N)N)nc2cc(C(C)O)ccc12 (centres unmarked) , is recorded Ki strictly lower than 1 µM?
-1

Given Cc1nc(NC(=N)N)nc2cc3c(cc12)CCC3 , is recorded Ki strictly lower than 1 µM?
1

Given COc1cc2c(C)nc(NC(=N)N)nc2cc1C , is recorded Ki strictly lower than 1 µM?
-1

Given CCCCOc1cc2nc(NC(=N)N)nc(C)c2cc1OCCCC , is recorded Ki strictly lower than 1 µM?
-1

====

Target: UniProt:Q9EP86
Sequence (Q9EP86 whole entry): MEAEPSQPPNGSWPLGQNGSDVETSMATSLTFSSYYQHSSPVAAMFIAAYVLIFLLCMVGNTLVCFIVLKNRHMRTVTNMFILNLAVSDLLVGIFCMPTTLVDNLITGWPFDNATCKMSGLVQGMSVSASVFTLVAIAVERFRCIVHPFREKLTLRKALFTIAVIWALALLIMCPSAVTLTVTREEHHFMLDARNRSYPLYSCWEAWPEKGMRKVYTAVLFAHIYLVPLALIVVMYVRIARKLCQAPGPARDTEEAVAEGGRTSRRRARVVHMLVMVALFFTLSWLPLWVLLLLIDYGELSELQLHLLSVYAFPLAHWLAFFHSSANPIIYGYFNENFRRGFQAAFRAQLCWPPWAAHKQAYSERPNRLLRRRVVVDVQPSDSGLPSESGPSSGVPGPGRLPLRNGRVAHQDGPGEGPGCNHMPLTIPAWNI
Test: Binding affinity at cloned recombinant rat NPFF1 receptor
Measured Ki by item

For orientation, consider the following solved cases.
[[record]]
molecule = "Cc1cc(NC(=N)N)nc2c(C)cccc12 [Compound 6002, N-(4,8-dimethyl-2-quinolinyl)guanidine]"
system_tested = "UniProt:Q9EP86"
obs_value = "0.091 µM"

[[record]]
molecule = "CCc1cc(NC(=N)N)nc2cc(C)ccc12 [Compound 6003]"
system_tested = "UniProt:Q9EP86"
obs_value = "0.021 µM"

[[record]]
molecule = "CCC(C)c1ccc2nc(NC(=N)N)nc(C)c2c1 (stereo not drawn) [Compound 2002]"
system_tested = "UniProt:Q9EP86"
obs_value = "0.077 µM"

[[record]]
molecule = "Cc1cc(NC(=N)N)nc2ccccc12 [Compound 6001, N-(4-methyl-2-quinolinyl)guanidine]"
system_tested = "UniProt:Q9EP86"
obs_value = "0.011 µM"

[[record]]
molecule = "CCCCCc1ccc2nc(NC(=N)N)cc(C)c2c1 [Compound 5002]"
system_tested = "UniProt:Q9EP86"
obs_value = "0.03 µM"

[[record]]
molecule = "CCCCc1ccc2nc(NC(=N)N)cc(C)c2c1 [Compound 5001]"
system_tested = "UniProt:Q9EP86"
obs_value = "0.024 µM"

[[record]]
molecule = "Cc1nc(NC(=N)N)nc2ccc(C(C)(C)C)cc12 [Compound 1004]"
system_tested = "UniProt:Q9EP86"
obs_value = "0.71 µM"

[[record]]
molecule = "Cc1nc(NC(=N)N)nc2ccc(OCCCCCOc3ccccc3)cc12 [Compound 1005]"
system_tested = "UniProt:Q9EP86"
obs_value = "0.316 µM"


# input for lookup
Recorded Ki of Cc1nc(NC(=N)N)nc2cc(C(C)(C)C)ccc12 [Compound 1022] , please.
0.126 µM

====

Measured EC50 by item
Target: rNPFF2 (Rattus norvegicus)
Construct: expressed in transfected cells
Experiment: Functional assay (agonist potency, intrinsic activity) at cloned rat NPFF2 receptor
Format: cell-based
Conditions: recombinant rat NPFF2
# unit: nM | format: bare number

For orientation, consider the following solved cases.
[[record]]
compound = "Cc1ccc2nc(NC(=N)N)cc(C)c2c1"
measure_name = "EC50"
measure_unit = "nM"
obs_value = 404

[[record]]
compound = "COc1cc2c(C)nc(NC(=N)N)nc2cc1C"
measure_name = "EC50"
measure_unit = "nM"
obs_value = 3160

[[record]]
compound = "Cc1nc(NC(=N)N)nc2ccc(CCCC(C)O)cc12 (centres unmarked)"
measure_name = "EC50"
measure_unit = "nM"
obs_value = 394

[[record]]
compound = "Cc1nc(NC(=N)N)nc2cc(OC(F)(F)F)ccc12"
measure_name = "EC50"
measure_unit = "nM"
obs_value = 369

[[record]]
compound = "Cc1cc(NC(=N)N)nc2cc(F)ccc12"
measure_name = "EC50"
measure_unit = "nM"
obs_value = 2640


Recorded EC50 of Cc1nc(NC(=N)N)nc2cc(C(C)O)ccc12 (centres unmarked) , please.
3160

Recorded EC50 of Cc1cc(NC(=N)N)nc2ccc(-c3ccccc3)cc12 , please.
3160
